Assign pEC50, in vitro inhibition of cAMP to each entry below.
Target: GPR6 receptor expressed in CHO-K1 cells (Homo sapiens)
Construct: expressed in transfected cells
Sequence (P46095 whole entry): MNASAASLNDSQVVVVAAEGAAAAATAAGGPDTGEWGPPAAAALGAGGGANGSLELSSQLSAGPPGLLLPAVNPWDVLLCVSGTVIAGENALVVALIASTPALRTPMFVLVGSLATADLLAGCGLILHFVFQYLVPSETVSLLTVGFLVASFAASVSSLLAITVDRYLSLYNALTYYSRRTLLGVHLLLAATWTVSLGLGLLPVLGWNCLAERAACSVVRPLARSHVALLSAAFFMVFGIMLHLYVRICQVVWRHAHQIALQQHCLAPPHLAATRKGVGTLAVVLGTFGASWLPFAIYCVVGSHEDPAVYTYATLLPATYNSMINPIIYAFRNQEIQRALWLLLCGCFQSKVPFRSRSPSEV
Assay: In vitro inhibition of cAMP (EC50), cell-based HTRF cAMP assay
Conditions: inhibition of constitutive cAMP activity of GPR6 in CHO-K1 cells
Lab note: write the figure by itself, no unit.

stdin: Give pEC50, in vitro inhibition of cAMP for the following compound: COc1ccncc1C(=O)Nc1cc(S(C)(=O)=O)ccc1N1CCC(Oc2ccc(F)cc2F)CC1 [Example 7]
stdout: 7.4

stdin: Give pEC50, in vitro inhibition of cAMP for the following compound: COc1nc(C)cc(C)c1C(=O)Nc1cc(C#N)ccc1N1CCC(Oc2ccc(F)cc2F)CC1 [Example 80]
stdout: 6.3

stdin: Give pEC50, in vitro inhibition of cAMP for the following compound: Cn1c2c(cc(C(=O)Nc3cc(C#N)ccc3N3CCC(Oc4ccc(F)cc4F)CC3)c1=O)CCCC2 [Example 185]
stdout: 6.4

stdin: Give pEC50, in vitro inhibition of cAMP for the following compound: Cc1cccn2c(=O)c(C(=O)Nc3cc(C#N)ccc3N3CCC(Oc4ccc(F)cc4F)CC3)cnc12 [Example 197]
stdout: 6.7

stdin: Give pEC50, in vitro inhibition of cAMP for the following compound: CCn1ncc(C(=O)Nc2cc(C#N)cnc2N2CCC(Oc3ccc(F)cc3F)CC2)c1OC [Example 120]
stdout: 7.4

stdin: Give pEC50, in vitro inhibition of cAMP for the following compound: COc1nc(C)ccc1C(=O)Nc1cc(C#N)c(F)cc1N1CCC(Oc2ccc(F)cc2F)CC1 [Example 39]
stdout: 7.3

stdin: Give pEC50, in vitro inhibition of cAMP for the following compound: COc1ccc(CC2CCN(c3ccc(C#N)cc3NC(=O)c3cccn(C)c3=O)CC2)c(F)c1 [Example 90]
stdout: 7.2

stdin: Give pEC50, in vitro inhibition of cAMP for the following compound: COc1ncc(Cl)cc1C(=O)Nc1cc(C#N)ccc1N1CCC(Oc2ccc(F)cc2F)CC1 [Example 193]
stdout: 5.9

stdin: Give pEC50, in vitro inhibition of cAMP for the following compound: N#Cc1ccc(N2CCC(Oc3ccc(F)cc3F)CC2)c(NC(=O)c2ncccc2F)c1 [Example 108]
stdout: 7.0

stdin: Give pEC50, in vitro inhibition of cAMP for the following compound: COc1ncccc1C(=O)Nc1cc(C#N)c(C(=O)N(C)C)cc1N1CCC(Oc2ccc(F)cc2F)CC1 [Example 273]
stdout: 7.3

stdin: Give pEC50, in vitro inhibition of cAMP for the following compound: COc1c(C)ccc(C)c1C(=O)Nc1cc(C#N)ccc1N1CCC(Oc2ccc(F)cc2F)CC1 [Example 214]
stdout: 5.5

stdin: Give pEC50, in vitro inhibition of cAMP for the following compound: COc1nn(C)cc1C(=O)Nc1cc(C#N)cnc1N1CCN(Cc2ccc(OC(F)(F)F)cc2)CC1 [Example 166]
stdout: 6.1

stdin: Give pEC50, in vitro inhibition of cAMP for the following compound: Cn1cccc(C(=O)Nc2cc(C#N)ccc2N2CCC(C(F)c3cc(F)ccc3F)CC2)c1=O (stereo not shown) [Example 87]
stdout: 7.2

stdin: Give pEC50, in vitro inhibition of cAMP for the following compound: COc1nn(C)cc1C(=O)Nc1cc(C#N)cnc1N1CCN(Cc2ccccc2OC(F)(F)F)CC1 [Example 167]
stdout: 6.5

stdin: Give pEC50, in vitro inhibition of cAMP for the following compound: COc1ncccc1C(=O)Nc1cc(C#N)ccc1N1CCN(Cc2cccc(F)c2F)CC1 [Example 243]
stdout: 6.5
